system: DU-145; test: NCI tumour cell line growth inhibition, 48 h
Activity calls are given as the source filed them. No stated cut-off is given here; in the data, active = GI50 up to about 1.1 µM and inactive = higher.
# GI50 per entry

Take a look at these entries with their results.
compound="O=C1CSC2(CC(/C=C/c3ccccc3[N+](=O)[O-])=NN2c2cccc(S(=O)(=O)O)c2)N1c1nc2ccccc2s1 (stereo not drawn)" result="12.5 µM (inactive)"
compound=COc1c(-c2cccs2)oc2c(CC(=O)O)cccc2c1=O result="> 100 µM (inactive)"
compound=CC(=O)OC[C@@]1(C)[C@@H]2[C@@H]3[C@@]4(CO[C@]3(C)C(=O)[C@@]3(OC(C)=O)C[C@H](C)[C@H](OC(C)=O)[C@@H]3[C@H]4OC(C)=O)[C@H](OC(=O)c3ccccc3)C[C@@H]21 result="> 100 µM (inactive)"
compound=CN(C)c1ccc(/C=C2\N=C(NN)NC2=O)cc1 result="76.7 µM (inactive)"
compound=O=C1CC2(CCN(Cc3ccccc3)CC2)C(=O)N1N1CCCCC1 result="> 100 µM (inactive)"

## Task For C=C1C(=O)C=C2C=C3C(=O)C(C)(C)C[C@]3(O)C12C (stereo partly drawn) , what is its reported GI50?
## Result 18.8 µM (inactive)

## Task Next entry: "O[C@@H]1C=C[C@]23CCN(Cc4cc5c(cc42)OCO5)[C@@H]3C1"
## Result 24.7 µM (inactive)

## Task Next entry: CN(C)C(Cc1c[nH]cn1)C(=O)N1CCCC1C(N)=O (stereo not drawn)
## Result > 100 µM (inactive)

## Task Next entry: C1COCCOP2(N3CC3)=NP(N3CC3)(=NP(N3CC3)(N3CC3)=N2)OCCOCCO1 (stereo not drawn)
## Result 37.4 µM (inactive)

* * *

# GI50 per entry
test system: OVCAR-4; experiment: NCI tumour cell line growth inhibition, 48 h
Calls of active or inactive are those of the source. No stated cut-off is given here; in the data, active = GI50 up to about 1.1 µM and inactive = higher.

compound=Oc1cc2cc(O)nc(O)c2c(O)n1 result="> 100 µM (inactive)"

## Task Provide the documented GI50 with OVCAR-4 as the system for "Cc1c(/C=N/NC(=S)Nc2cccc(Cl)c2)c(=O)n(-c2ccccc2)n1C"
## Result 16.4 µM (inactive)

* * *

# GI50 per entry
tested on: MDA-MB-231; experiment: NCI tumour cell line growth inhibition, 48 h
Calls of active or inactive are those of the source. Cut-off read from the data, not from the text of the source: active = GI50 up to about 1.1 µM and inactive = higher.

Take a look at these entries with their results.
molecule="COc1cc(C2c3cc4c(cc3[C@@H](Nc3ccc(F)cc3)C3CO[C@@H](O)[C@H]23)OCO4)cc(OC)c1O (some centres undefined)" property=GI50 result="3.48 µM (inactive)"
molecule=COc1ccc(-c2c3c(nc4[nH]c(=S)[nH]c(=S)c24)CCCC3)cc1OC property=GI50 result="18 µM (inactive)"
molecule=O[C@@H]1C=C[C@]23CCN(Cc4cc5c(cc42)OCO5)[C@@H]3C1 property=GI50 result="58.2 µM (inactive)"

Then this molecule:
## Task For "CCC1(CC)CC(=NNS(=O)(=O)c2ccc(C)cc2)C1" , what is its reported GI50?
## Result > 100 µM (inactive)

* * *

# GI50 per entry
test system: HOP-62; assay: NCI tumour cell line growth inhibition, 48 h
The source made the active and inactive calls. No stated cut-off is given here; in the data, active = GI50 up to about 1.1 µM and inactive = higher.

molecule="O=c1[nH]c(=O)n(C2OC(CO)C(O)C2O)c2ccsc12 (stereo not drawn)" experimental_target=HOP-62 result="> 100 µM (inactive)"
molecule=N#Cc1c(-c2ccco2)cc(-c2ccc(NCc3nc4ccccc4[nH]3)cc2)nc1N experimental_target=HOP-62 result="26.7 µM (inactive)"
molecule=C1CSC[C@H]2COC[C@@H](CSCCS1)S2 experimental_target=HOP-62 result="> 100 µM (inactive)"
molecule=COc1cnc2oc3ccc(O)cc3c2c1-c1ccccc1 experimental_target=HOP-62 result="24 µM (inactive)"
molecule=O=C(O)c1ccccc1[Se][Se]c1ccccc1C(=O)O experimental_target=HOP-62 result="29.7 µM (inactive)"

## Task For "CN(C)/N=C(/CC(O)(C(F)(F)F)C(F)(F)F)c1ccc([N+](=O)[O-])cc1" , what is its reported GI50?
## Result > 100 µM (inactive)

## Task Next entry: [O-][S+]1c2ccccc2N=C(c2cccc3ccccc23)CC1c1cccc2ccccc12 (stereo not drawn)
## Result 34.2 µM (inactive)

## Task Next entry: "COc1ccc2c(c1)c1c(n2CCN2CCCCC2)-c2ccccc2CC1"
## Result 18.6 µM (inactive)
